Entries and their Δn values follow.
Assay: Measurement of Δn (refractive index anisotropy), wedge-shaped liquid crystal cell
Type: physicochemical
Details: at 550 nm and 30° C.; for compounds liable to crystallize estimated from extrapolated values of mixtures with other liquid crystals
Assay Readout: Δn

Structure: C=CC(=O)OCCc1ccc(C#Cc2ccc(COc3ccc(C#Cc4ccc(CCOC(=O)C=C)cc4)cc3C(=O)OC)cc2)cc1
Observed Result: 0.37

Structure: C=CC(=O)OCCc1ccc(C#Cc2ccc(COc3ccc(C#Cc4ccc(CCOC(=O)C=C)cc4)cc3C)cc2)cc1
Observed Result: 0.34

Structure: C=CC(=O)OCCc1ccc(C#Cc2ccc(COc3ccc(C#Cc4ccc(CCOC(=O)C=C)cc4)cc3C(=O)OC(C)(C)C)cc2)cc1
Observed Result: 0.33

FYI, the data here is from patent US11390812B2.
